tested on: Reticulocyte Depletion Signature (Alas2 and peripherin probes), liver; conditions: rat, in vivo
Marks after values point to notes of the source that are not given here.
For each record, write down the corresponding Signature Projection Score (SPS).

Use the examples below as a reference point.
OC(Cn1cncn1)(Cn1cncn1)c1ccc(F)cc1F; 26
CC/C(=C(/CC)c1ccc(O)cc1)c1ccc(O)cc1; 33
CS(=O)(=O)OCCCCOS(C)(=O)=O; 43
Cc1ccc(C)c(OCCCC(C)(C)C(=O)O)c1; 18
Cn1cnc([N+](=O)[O-])c1Sc1ncnc2nc[nH]c12; 90*
Nc1nc2nc[nH]c2c(=S)[nH]1 [THIOGUANINE, 2-amino-1,7-dihydro-6H-purine-6-thione]; 99*

Please look at the items below and tell me Signature Projection Score (SPS) for each one, in order.
1. CC1=C(/C=C/C(C)=C/C=C/C(C)=C\C(=O)O)C(C)(C)CCC1
2. COc1cccc2c1C(=O)c1c(O)c3c(c(O)c1C2=O)C[C@@](O)(C(=O)CO)C[C@@H]3O[C@H]1C[C@H](N)[C@H](O)[C@H](C)O1
3. C[C@@H]1C[C@H]2[C@@H]3CCC4=CC(=O)C=C[C@]4(C)[C@@]3(F)[C@@H](O)C[C@]2(C)[C@@]1(O)C(=O)CO

Result:
23
95*
22
